These measurements were taken from patent US20150272939A1.

- target entity: JARID1B (Homo sapiens, UniProt Q9UGL1)
- Construct: The FLAG tagged full length JARID1B enzyme was expressed in Sf21 insect cells using FLAG-JARID1B baculoviruses; FLAG (N); made in house; host or cells: Sf21 insect cells (baculovirus)
- Sequence (Q9UGL1 whole entry): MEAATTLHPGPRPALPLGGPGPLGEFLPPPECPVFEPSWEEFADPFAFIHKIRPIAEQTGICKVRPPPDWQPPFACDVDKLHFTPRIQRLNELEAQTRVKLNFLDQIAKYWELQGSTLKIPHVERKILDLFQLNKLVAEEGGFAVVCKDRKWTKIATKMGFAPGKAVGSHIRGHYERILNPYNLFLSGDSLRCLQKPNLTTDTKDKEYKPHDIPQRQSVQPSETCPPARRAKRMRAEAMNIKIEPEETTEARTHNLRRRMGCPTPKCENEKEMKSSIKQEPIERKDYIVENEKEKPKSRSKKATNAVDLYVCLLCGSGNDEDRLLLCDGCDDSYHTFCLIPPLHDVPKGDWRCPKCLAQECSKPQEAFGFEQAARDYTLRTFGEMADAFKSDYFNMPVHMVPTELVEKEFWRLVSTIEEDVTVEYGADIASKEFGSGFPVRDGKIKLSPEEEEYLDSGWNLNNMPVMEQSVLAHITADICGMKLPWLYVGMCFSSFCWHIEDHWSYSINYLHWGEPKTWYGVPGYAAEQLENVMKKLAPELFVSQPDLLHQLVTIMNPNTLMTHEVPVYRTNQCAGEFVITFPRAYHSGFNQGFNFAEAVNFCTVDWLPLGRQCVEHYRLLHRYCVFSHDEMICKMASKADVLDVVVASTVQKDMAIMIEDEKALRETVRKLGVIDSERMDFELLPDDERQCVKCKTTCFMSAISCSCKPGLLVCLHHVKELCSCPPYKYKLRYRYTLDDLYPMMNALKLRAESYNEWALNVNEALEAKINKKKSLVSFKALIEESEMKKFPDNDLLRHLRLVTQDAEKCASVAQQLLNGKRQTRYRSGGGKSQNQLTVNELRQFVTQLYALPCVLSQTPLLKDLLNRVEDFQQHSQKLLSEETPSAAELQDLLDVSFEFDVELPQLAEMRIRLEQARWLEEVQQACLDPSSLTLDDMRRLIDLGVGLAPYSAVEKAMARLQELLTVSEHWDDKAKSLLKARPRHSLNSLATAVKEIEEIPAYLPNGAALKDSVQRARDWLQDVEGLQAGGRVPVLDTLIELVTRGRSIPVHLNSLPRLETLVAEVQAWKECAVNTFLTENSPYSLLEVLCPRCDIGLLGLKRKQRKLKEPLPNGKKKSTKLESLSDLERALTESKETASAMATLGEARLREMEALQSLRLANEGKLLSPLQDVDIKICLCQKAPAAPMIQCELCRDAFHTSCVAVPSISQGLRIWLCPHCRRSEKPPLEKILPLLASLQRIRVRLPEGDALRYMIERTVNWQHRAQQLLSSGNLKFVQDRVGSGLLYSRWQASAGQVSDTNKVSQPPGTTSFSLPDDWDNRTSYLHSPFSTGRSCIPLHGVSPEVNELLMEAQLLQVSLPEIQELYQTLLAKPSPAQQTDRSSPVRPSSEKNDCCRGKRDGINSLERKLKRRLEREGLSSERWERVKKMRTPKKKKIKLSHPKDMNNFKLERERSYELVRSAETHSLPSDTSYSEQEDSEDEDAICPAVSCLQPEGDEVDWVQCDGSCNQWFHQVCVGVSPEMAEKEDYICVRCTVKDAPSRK
- method: FLAG-JARID1B histone demethylase assay with AlphaScreen detection (HTS and dose response)
- Type: biochemical
- measurement setup: high-throughput screen, compound 20 μM, standard demethylase conditions (10 μM α-KG, 50 μM Fe (II)); read-out: Inhibitory effect (percent)
assay readout: inhibition at 20 µM (%)

[[record]]
molecule = "O=C(Cn1c(=O)oc2ccccc21)Nc1cccc([N+](=O)[O-])c1 [YU151591]"
quantitative_readout = 35

[[record]]
molecule = "CCOc1c(CNc2ccc(N3CCCC3)cc2)cccc1OC [YU153287]"
quantitative_readout = 54.2

[[record]]
molecule = "Cc1ccc(NC(=O)C2OCCc3ccccc32)cc1Cl (stereo not drawn) [YU150403]"
quantitative_readout = 97.5


---

- target entity: JARID1B (Homo sapiens)
- Construct: The FLAG tagged full length JARID1B enzyme was expressed in Sf21 insect cells using FLAG-JARID1B baculoviruses; FLAG (N); made in house; host or cells: Sf21 insect cells (baculovirus)
- method: FLAG-JARID1B histone demethylase assay with AlphaScreen detection (HTS and dose response)
- Assay type: biochemical
- measurement setup: high-throughput screen, compound 20 μM, standard demethylase conditions (10 μM α-KG, 50 μM Fe (II)); read-out: Inhibitory effect (percent)
Where a name gives a salt, the structure may show the parent alone.
Outcome: rule met for inhibition at 20 µM of at least 60%; rule not met for anything lower.

[[record]]
compound = "CC(C)n1c(-c2ccccc2F)n[nH]c1=S"
assigned_category = "rule not met"

[[record]]
compound = "Oc1cccc(C(=S)N2CCN(Cc3ccccc3)CC2)c1"
assigned_category = "rule not met"

[[record]]
compound = "COc1cc(C=O)ccc1OC(=O)c1ccncc1"
assigned_category = "rule not met"

[[record]]
compound = "COc1ccc2c(CCN)c[nH]c2c1.Cl"
assigned_category = "rule not met"

[[record]]
compound = "NC(=O)c1ncn([C@@H]2O[C@H](CO)[C@@H](O)[C@H]2O)n1 [YU034518, RIBAVIRIN, reference compound]"
assigned_category = "rule met"

[[record]]
compound = "O=c1c(-c2cc(O)c(O)c(O)c2)coc2cc(O)c(O)c(O)c12 [YU155411, IRIGENOL, reference compound]"
assigned_category = "rule met"

[[record]]
compound = "CNC(C(=O)N(C)OC)C(C)C (stereo not shown)"
assigned_category = "rule met"

[[record]]
compound = "O=C(O)c1cc(O)c(=O)c2c(O)c(O)c(O)cc2c1 [YU155193, PURPUROGALLIN-4- CARBOXYLIC ACID, reference compound]"
assigned_category = "rule met"

[[record]]
compound = "CC(C)NCC(O)c1ccc(O)c(O)c1 (stereo not shown) [YU033874, ISOPROTERENOL HYDROCHLORIDE, reference compound]"
assigned_category = "rule not met"


---

- target entity: JARID1B (Homo sapiens)
- Construct: The FLAG tagged full length JARID1B enzyme was expressed in Sf21 insect cells using FLAG-JARID1B baculoviruses; FLAG (N); made in house; host or cells: Sf21 insect cells (baculovirus)
- method: FLAG-JARID1B histone demethylase assay with AlphaScreen detection (HTS and dose response);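 on Assay Signal (percent): compound tested at 20 µM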
- Format: biochemical
- measurement setup: validation of HTS actives; effect of compound in JARID1B AlphaScreen assay
Where a name gives a salt, the structure may show the parent alone.
Note that class boundaries on Assay Signal (percent) are lower level = under 20%, middle level = from 20% up to 50%, upper level = 50% and over

[[record]]
compound = "NC[C@H](O)c1ccc(O)c(O)c1 [YU033927, NOREPINEPHRINE, reference compound]"
assigned_category = "middle level"

[[record]]
compound = "Cn1c(C(C#N)=Cc2ccncc2)nc2ccccc21 (single isomer, unassigned) [YU146842]"
assigned_category = "upper level"

[[record]]
compound = "C=CCOc1c(Cl)cc(C=C[N+](=O)[O-])cc1OCC (single isomer, unassigned) [YU148636]"
assigned_category = "lower level"

[[record]]
compound = "CCC(=O)Nc1ccc(N2CCC(C(N)=O)(N3CCCCC3)CC2)c(C(=O)O)c1 [YU208193]"
assigned_category = "middle level"

[[record]]
compound = "OC1CCCCC1N1CCC(c2ccccc2)CC1 (stereo not drawn) [YU034447, VESAMICOL HYDROCHLORIDE, reference compound]"
assigned_category = "lower level"

[[record]]
compound = "Oc1c(C(Nc2ccccc2Cl)c2cccnc2)ccc2cccnc12 (stereo not drawn) [YU172164]"
assigned_category = "middle level"


---

- target entity: JARID1B (Homo sapiens)
- Construct: The FLAG tagged full length JARID1B enzyme was expressed in Sf21 insect cells using FLAG-JARID1B baculoviruses; FLAG (N); made in house; host or cells: Sf21 insect cells (baculovirus)
- method: FLAG-JARID1B histone demethylase assay with AlphaScreen detection (HTS and dose response);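 further: FLAG-tagged JARID1B at 4 nM acting on a biotinylated H3K4me3 peptide, demethylation read by AlphaScreen luminescence, with hits checked against bio-H3K4me2 without enzyme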
- Assay type: biochemical
- measurement setup: high-throughput screen, compound 20 μM, standard demethylase conditions (10 μM α-KG, 50 μM Fe (II)); read-out: Inhibitory effect (percent)
Where a name gives a salt, the structure may show the parent alone.
assay readout: inhibition at 20 µM (%)

[[record]]
compound = "CCN(CC)CCOc1ccc(/C(=C(\\Cl)c2ccccc2)c2ccccc2)cc1 [YU033752, CLOMIPHENE CITRATE, reference compound]"
quantitative_readout = 47

[[record]]
compound = "CNC[C@H](O)c1ccc(O)c(O)c1 [YU033809, ADRENALINE BITARTRATE, reference compound]"
quantitative_readout = 56.3

[[record]]
compound = "O=C(Nc1ccc(N2CCC(c3ccccc3)C2)c(C(=O)O)c1)c1cccc(Cl)c1 (stereo not drawn)"
quantitative_readout = 50.2

[[record]]
compound = "COC(=O)Nc1ccc(S(=O)(=O)N2CCCCCC2)cc1"
quantitative_readout = 85.5

[[record]]
compound = "COC(=O)c1cccc(OCC(O)Cn2ccnc2)c1 (stereo not drawn)"
quantitative_readout = 51.4

[[record]]
compound = "COC1=CC(=O)C(O)=CC1=CC=Cc1ccccc1 (single isomer, unassigned) [YU155007, OBTUSAQUINONE, reference compound]"
quantitative_readout = 48.7

[[record]]
compound = "COCCCNCCOc1cc(C(C)C)ccc1C"
quantitative_readout = 30.9

[[record]]
compound = "Oc1cc(O)c2c(c1)O[C@H](c1ccc(O)c(O)c1)[C@H](O)C2 [YU155618, EPICATECHIN, reference compound]"
quantitative_readout = 66

[[record]]
compound = "NCCc1cc(O)c(O)cc1O [YU033940, OXIDOPAMINE HYDROCHLORIDE, reference compound]"
quantitative_readout = 41

[[record]]
compound = "O=C(Oc1cc(O)cc2c1C[C@@H](OC(=O)c1cc(O)c(O)c(O)c1)[C@@H](c1cc(O)c(O)c(O)c1)O2)c1cc(O)c(O)c(O)c1 [YU155091, EPIGALLOCATECHIN 3,5-DIGALLATE, reference compound]"
quantitative_readout = 92.2

[[record]]
compound = "C=CC1=C(C(=O)O)N2C(=O)[C@@H](NC(=O)/C(=N\\OCC(=O)O)c3csc(N)n3)[C@H]2SC1 [YU039791, CEFIXIME TRIHYDRATE, reference compound]"
quantitative_readout = 105

[[record]]
compound = "Cc1ccc(C)n1NC(=O)c1ccc(O)cc1"
quantitative_readout = 36.9

[[record]]
compound = "COc1cccc2c1C(=O)c1c(O)c3c(c(O)c1C2=O)C[C@@](O)(C(=O)CO)C[C@@H]3O[C@H]1C[C@H](N)[C@@H](O)[C@H](C)O1.Cl (stereo in doubt) [YU039604, EPIRUBICIN HYDROCHLORIDE, reference compound]"
quantitative_readout = 81.9

[[record]]
compound = "CCC(=O)O[C@]1(C(=O)CCl)[C@@H](C)C[C@H]2[C@@H]3CCC4=CC(=O)C=C[C@]4(C)[C@@]3(F)[C@@H](O)C[C@@]21C [YU034506, CLOBETASOL PROPIONATE, reference compound]"
quantitative_readout = 98.9

[[record]]
compound = "O=C(O[C@@H]1Cc2c(O)cc(O)cc2O[C@@H]1c1cc(O)c(=O)c2c(O)c(O)cc([C@H]3Oc4cc(O)cc(O)c4C[C@H]3OC(=O)c3cc(O)c(O)c(O)c3)c2c1)c1cc(O)c(O)c(O)c1 (stereo in doubt) [YU155100, THEAFLAVIN DIGALLATE, reference compound]"
quantitative_readout = 105

[[record]]
compound = "Nc1c([N+](=O)[O-])cc(F)c(N2CCOCC2)c1Br"
quantitative_readout = 74.6

[[record]]
compound = "Cc1ccc(C)c(CN2CCN(Cc3ccccc3)CC2)c1"
quantitative_readout = 35.3

[[record]]
compound = "COc1ccccc1OCc1nnc(S)n1C"
quantitative_readout = 36.4

[[record]]
compound = "CCCCCCCCCCCCCCCC[N+](C)(C)C [YU034377, CETRIMONIUM BROMIDE, reference compound]"
quantitative_readout = 94.2

[[record]]
compound = "CN(C)CCCn1cc(C2=C(c3c[nH]c4ccccc34)C(=O)NC2=O)c2ccccc21 [YU154851, GF 109203X, reference compound]"
quantitative_readout = 40.7

[[record]]
compound = "N=C(NCCCCCCNC(=N)NC(=N)Nc1ccc(Cl)cc1)NC(=N)Nc1ccc(Cl)cc1 [YU033734, CHLORHEXIDINE, reference compound]"
quantitative_readout = 41

[[record]]
compound = "CCCc1ccc(OC(=O)c2cc3ccccc3oc2=O)cc1"
quantitative_readout = 37

[[record]]
compound = "NC(CO)C(=O)NNCc1ccc(O)c(O)c1O (stereo not drawn) [YU033702, BENSERAZIDE HYDROCHLORIDE, reference compound]"
quantitative_readout = 70.6

[[record]]
compound = "C=CCN(CC=C)C(=S)Nc1sc(C)c(C)c1C(=O)OC"
quantitative_readout = 65.6

